- subject of test: Serotonin (5-HT) receptor
- procedure summary: Ability to displace [3H]5-HT binding to 5-hydroxytryptamine receptor site using 1 uM LSD as masking ligand
- Format: protein assay, Cavia porcellus
readout type: IC50 (M l-1)
Answers are plain numbers, in M l-1.

Record IC50 per entry; entries follow.
1. CSc1cccc2[nH]cc(CCN(C)C)c12
2. CN(C)CCc1c[nH]c2cc3c(cc12)OCO3
3. CSc1ccc2c(CCN(C)C)c[nH]c2c1
4. CC(C)N(CCc1c[nH]c2ccc3c(c12)OCO3)C(C)C

Key:
1: 0.000151; 2: 0.0000407; 3: 0.0000408; 4: 2.24e-6

---

For each of the molecules below, state its Change in response.
- Test system: Rattus norvegicus
- procedure summary: The behavior disruption data as percent change in response from drug versus saline at dose 0.5 mg/kg, expressed as B/P (burst/premature).
- Assay type: functional
Answers are plain numbers, in %.

CSc1ccc2[nH]cc(CCN(C)C)c2c1
13
CN(C)CCc1c[nH]c2ccc3c(c12)OCO3
0
COc1cccc2[nH]cc(CCN(C)C)c12
0

We next turn to a different molecule, shown below.
Exercise: Write down Change in response measured for item CSc1ccc2c(CCN(C)C)c[nH]c2c1
Key: 4

---

For each of the compounds below, state its Change in response.
- System: Rattus norvegicus
- procedure summary: The behavior disruption data as percent change in response from drug versus saline at dose 5mg/Kg, expressed as E (efficient)
- Assay type: functional
Answers are plain numbers, in %.

Some solved entries appear below for comparison.
CN(C)CCc1c[nH]c2cc3c(cc12)OCO3
11
CC(C)N(CCc1c[nH]c2cc3c(cc12)OCO3)C(C)C
4
COc1ccc2c(CCN(C)C)c[nH]c2c1
50

Exercise: Write down Change in response measured for item CSc1cccc2[nH]cc(CCN(C(C)C)C(C)C)c12
Key: 5

---

- Test system: Rattus norvegicus
- procedure summary: The behavior disruption data as percent change in response from drug versus saline at dose 5 mg/kg, expressed as B/P (burst/premature).
- Format: functional
For each of the molecules below, state its Change in response.
Give bare numbers, in %.

Some solved entries appear below for comparison.
CC(C)N(CCc1c[nH]c2cc3c(cc12)OCO3)C(C)C
2
CN(C)CCc1c[nH]c2cc3c(cc12)OCO3
9
CSc1cccc2[nH]cc(CCN(C(C)C)C(C)C)c12
1

We next turn to a different molecule, shown below.
Exercise: Write down Change in response measured for item COc1ccc2c(CCN(C)C)c[nH]c2c1
Key: 29

---

- procedure summary: Ability to displace [3H]LSD binding to Lysergic acid diethylamide receptor site using 1 uM 5-HT as masking ligand
- Parameters: species or system Cavia porcellus
readout type: IC50 (M l-1)
One number for each entry, in M l-1.

Some solved entries appear below for comparison.
CSc1ccc2c(CCN(C)C)c[nH]c2c1
7.59e-6
CC(C)N(CCc1c[nH]c2cc3c(cc12)OCO3)C(C)C
0.00001
CSc1ccc2[nH]cc(CCN(C)C)c2c1
1.44e-7
CN(C)CCc1c[nH]c2cc3c(cc12)OCO3
1.78e-6
CSc1cccc2[nH]cc(CCN(C)C)c12
0.0000125

We next turn to a different molecule, shown below.
Exercise: Write down IC50 measured for item CC(C)N(CCc1c[nH]c2ccc3c(c12)OCO3)C(C)C
Key: 2.88e-6

---

- Tested on: Rattus norvegicus
- procedure summary: The behavior disruption data as percent change in response from drug versus saline at dose 0.5 mg/Kg, expressed as E (efficient)
- Assay type: functional
readout type: Change in response (%)
One number for each entry, in %.

Some solved entries appear below for comparison.
CSc1ccc2[nH]cc(CCN(C)C)c2c1
26
COc1cccc2[nH]cc(CCN(C)C)c12
2
CN(C)CCc1c[nH]c2ccc3c(c12)OCO3
5

We next turn to a different compound, shown below.
Exercise: Write down Change in response measured for item CSc1ccc2c(CCN(C)C)c[nH]c2c1
Key: 8
